Origin of measurements: patent US20250313625A1

# key: entry, value: IC50
- target.or.system: T1, mFc tagged human LAG3 ECD recombinant protein (human, UniProt P18627 23-450)
- T1 construct: extracellular domain; purchased from Biointron; not shown: mouse IgG Fc (mFc) tag
- T1 sequence (looked up): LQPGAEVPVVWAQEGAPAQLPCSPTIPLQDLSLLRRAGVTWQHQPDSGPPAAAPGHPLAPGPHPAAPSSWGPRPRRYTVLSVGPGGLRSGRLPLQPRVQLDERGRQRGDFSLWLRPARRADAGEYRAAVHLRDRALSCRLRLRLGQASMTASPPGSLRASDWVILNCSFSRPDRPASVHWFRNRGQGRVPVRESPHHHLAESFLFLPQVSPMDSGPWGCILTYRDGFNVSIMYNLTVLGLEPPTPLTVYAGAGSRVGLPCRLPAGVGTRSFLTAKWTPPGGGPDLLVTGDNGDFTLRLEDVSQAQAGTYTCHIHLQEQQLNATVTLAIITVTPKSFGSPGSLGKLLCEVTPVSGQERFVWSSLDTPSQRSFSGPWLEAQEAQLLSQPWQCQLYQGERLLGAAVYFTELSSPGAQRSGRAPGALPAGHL
- protocol.notes: competitive FACS: mFc-LAG3 ECD binding to Raji cells (MHC II)
Report only the number, with the unit nM understood.

Consider the following illustrative entries.
1) 048c (antibody, human IgG4, V domains shown, human IgG4 S228P / kappa chimeric antibody; also called chimeric antibody 048; not shown: human kappa light chain constant region (pcDNA3.4-hIgGk vector)) VH: EFQVQQSGPELVKPGASVKISCKASGYSFSDYNMNWLKQSTGKSLEWIGLVDPIYGTIRYNQKFKGKATLTVDQSSSTAYMQLNSLTSEDSAVYYCALITTSVRYFDYWGQGTTLTVSS VL: DVLMTQTPLSLPVSLGDQASISCRSSQNIVHTDGNTYLEWYLQKPGQSPKLLIYKVSNRFSGVPDRFSGSGSGTDFTLKISRVEAEDLGVYYCFQGSHVPPTFGGGTKLEIK	4
2) 015c (antibody, human IgG4, V domains shown, human IgG4 S228P / kappa chimeric antibody; also called chimeric antibody 015; not shown: human kappa light chain constant region (pcDNA3.4-hIgGk vector)) VH: EVQLQQSGPVLVKPGASVKLSCKASGFTFTDYYMNWVKLSHGKSLEWIGVINPFNGDTAYKQKFKGKATLTVDKSSSTAYMELNSLTSEDSAVYYCARDDGYYLYYFDSWGQGTTLTVSS VL: DIQMTQSPSSLSASLGERVSLTCRASQDIGSRLNWLQQEPDGTIKRLIYATSSLDSGVPKRFSGSRSGSDYSLTISSLDSEDFVVYYCLQYASSPPTFGAGTKLELK	5.4
3) 047c (antibody, human IgG4, V domains shown, human IgG4 S228P / kappa chimeric antibody; also called chimeric antibody 047; not shown: human kappa light chain constant region (pcDNA3.4-hIgGk vector)) VH: QVQLQQSGAELARPGASVKLSCKASGYSFTSYGVNWVKQRTGQGLEWIGEIYPRSGNTYYNERFGDKATLTADKSSSTAYMEIRSLTSEDSAVYFCARGGTYDGYYYAMDYWGQGTSVTVSS VL: DIVLTQSPASLAVSLGQRATISCRASESVDNFGSSFMHWYQQKPGQAPKLLIYRASNLESGIPARFSGSGSRTDFTLTINPVETDDVATYYCQQVNKDPRTFGGGTKLEIK	3.6
4) 024c (antibody, human IgG4, V domains shown, human IgG4 S228P / kappa chimeric antibody; also called chimeric antibody 024; not shown: human kappa light chain constant region (pcDNA3.4-hIgGk vector)) VH: EVQLQQSGPELVKPGASVKISCKASGYTFTDYYMNWVKQSHGKRLEWIGDIDPNNGGTSYNQKFKGKATLTVDKSSSSAYMDLRSLTSEDSAVYYCARAGSYYYGSSYVEYFDVWGTGTTVTVSS VL: DIQMTQSPASLSASVGETVTITCRASGNIHNYLAWYQQKQGASPQLLVYNAKTLADGVPSRFSGSGSGTEFSLKINSLQPEDFGNYYCQHFWNTPYTFGGGTKLEIK	3.7

Please find the next binder below.
Input line: Return the recorded IC50 value; entry: 038c (antibody, human IgG4, V domains shown, human IgG4 S228P / kappa chimeric antibody; also called chimeric antibody 038; not shown: human kappa light chain constant region (pcDNA3.4-hIgGk vector)) VH: DVQVQESGPGLVKPSQSLSLTCSVTGYSITSGYYWNWIRQFPGNKLEWMGYISYDGSNEYNLSLKNRLSITRDTSKNQFFLKLNSVTTEDTATYYCAREEDGYYGGMDYWGQGTSVTVSS VL: DIVMTQSHKFMSASVGVRVSITCRASQDVDTAVAWYQQKPGQSPKLLIYWASTRHTGVPDRFTGSGSGTDFTLTISNVQSEDLADYFCQQYSSYPYTFGGGTKLEIK
Output line: 5.2
